Cited source: ChEMBL document CHEMBL1148625

# Method Summary: Oral bioavailability in cynomolgus monkey at 0.8 mg/kg, iv or 4.0 mg/kg, po
# Type: ADME, organism-based, Macaca fascicularis
# Run Parameters: in vivo
Endpoint Label: bioavailability

INSERT INTO results (smiles_entry, assay_result) VALUES
  ('O=c1c(C2=Nc3ccccc3S(=O)(=O)N2)c(O)c2cc(F)ccc2n1CCC1CC1', '> 53%');

* * *

# Method Summary: Oral bioavailability in Sprague-Dawley rat at 1.3 mg/kg, iv or 3.4 mg/kg, po
# Assay type: ADME, organism-based
# Run Parameters: in vivo
Endpoint Label: bioavailability (%)

INSERT INTO measurements (smiles_entry, endpoint_label, assay_result) VALUES
  ('O=c1c(C2=Nc3ccccc3S(=O)(=O)N2)c(O)c2cc(F)ccc2n1CCC1CC1', 'bioavailability', 44);
